test: Toxicity liver stage against HepG2, at 10uM; format: cell-based; parameters: test concentration 10 uM, cell line HepG2-A16-CD81EGFP; conditions: human, HepG2-A16-CD81EGFP cells; read-out: INHIBITION
Measurement name: cytotoxicity at 10 µM (%)

compound=O=C(Cc1ccco1)N1C[C@H]2CCC[C@@]2(COCC2CC2)C1 result=-108
compound=CN(C(=O)c1ccncc1Cl)c1ccccc1S(C)(=O)=O result=17.6
compound="Cn1cc(-c2nc(C(=O)N3CCCC3Cn3cccn3)cs2)cn1 (stereo not given)" result=-9.25
compound=COC(=O)c1cccc(C(=O)N2CCN(c3cccc(C)c3C)CC2)n1 result=79.9
compound="COc1cccc2c1OCC(CNC(=O)CSc1nc(N)n[nH]1)C2 (stereo not given)" result=0.712
compound="Cc1cc(C)n(Cc2cc(C(=O)N3CCCC3c3nccs3)n[nH]2)n1 (stereo not given)" result=-5.08
compound=Cc1nc(-c2ccccc2)sc1CSCCC(N)=O result=-7.97
compound=CN(C)C1(CNC(=O)CC=Cc2ccc(F)cc2)CCOCC1 result=8.99
compound=CNc1cc2c(nn1)CCN(C(=O)c1ccoc1)C2 result=4.6
compound=COc1cccc2c1N(CC(=O)Nc1ccc(Cl)cn1)CCC2 result=64.9
compound="CN(C)c1ncc2c(n1)CCCC2NC(=O)c1ccsc1 (stereo not given)" result=10
compound="CCOC(=O)C(C)NC(=O)N1CCN(c2nc3ccccc3n2C)CC1 (stereo not given)" result=3.39
compound="COCCn1cc(C(=O)N2CCCC2c2cccc(F)c2)ccc1=O (stereo not given)" result=-3.48
compound=CCc1ccc(S(=O)(=O)Nc2cnccc2C)s1 result=-3.63
compound="COCC1c2c(cnn2C)CCN1Cc1ccco1 (stereo not given)" result=2.32
compound=Cc1cc(CNc2cc(-c3ccoc3C)nn2CCO)c(C)o1 result=-0.598
compound=Cc1occc(=O)c1OCC(=O)N1CCN(c2cccc(Cl)c2)CC1 result=-1.18
compound=CCN1Cc2cc(OC)ccc2N(CC(C)(C)O)CCC1=O result=-12.2
compound="Cc1cnn(CC2CCCCN2CC(=O)Nc2cccnc2)c1 (stereo not given)" result=3.5
compound="CCC(CN1CCN(C)CC1)NC(=O)C1(c2cccc(F)c2)CC1 (stereo not given)" result=3.54
compound="Cc1nnc(N2CCCC3(CN(Cc4ccc(C)s4)CCO3)C2)o1 (stereo not given)" result=-14.6
compound=Cc1csc(CNc2ccc(-c3nc(C4CC4)no3)cn2)n1 result=-16.2
compound=CC(C)C(=O)N1CCC(n2nc(-c3ccco3)ccc2=O)CC1 result=-2.44
compound=Cn1c(Cn2ccnc2)nnc1C1CCN(C(=O)c2ccncc2)CC1 result=-106
compound="O=C(CN1CCOC(Cn2cccn2)C1)Nc1ccncc1 (stereo not given)" result=0.748
